Tested on: Trichophyton mentagrophytes
Experiment: Antifungal activity against Trichophyton mentagrophytes after 48 hrs by broth microdilution technique
Assay type: functional
Observable: MIC (µg/mL)

- Cc1ncc([N+](=O)[O-])n1CCOC(=O)CCn1nnc2ccccc21: 50
- C=CC(=O)OCCn1c([N+](=O)[O-])cnc1C: 50
- Cc1ncc([N+](=O)[O-])n1CCOC(=O)CCN1CCN(c2ccc(F)cc2)CC1: 50
- Cc1ncc([N+](=O)[O-])n1CCSC(=S)N1CCCCC1: 50
- OC(Cn1cncn1)(Cn1cncn1)c1ccc(F)cc1F: 1
- Cc1ncc([N+](=O)[O-])n1CCSC(=S)N1CCN(c2ccccn2)CC1.O=C(O)C(O)C(O)C(=O)O: 50
- CCN(CC)C(=S)SCCn1c([N+](=O)[O-])cnc1C: 25
- Cc1ncc([N+](=O)[O-])n1CCOC(=O)CCn1ccnc1: 50
- Cc1ncc([N+](=O)[O-])n1CCOC(=O)CCn1c([N+](=O)[O-])cnc1C: 50
- Cc1ncc([N+](=O)[O-])n1CCSC(=S)N1CCCC1.O=C(O)C(O)C(O)C(=O)O: 50
- Cc1ncc([N+](=O)[O-])n1CCOC(=O)CCN(C)CCC(Oc1ccc(C(F)(F)F)cc1)c1ccccc1 (stereo unspecified): 50
- Cc1ncc([N+](=O)[O-])n1CCOC(=O)CCN1CCN(c2ccc([N+](=O)[O-])cc2)CC1: 50
- Cc1ncc([N+](=O)[O-])n1CCOC(=O)CCl: 25
- Cc1ncc([N+](=O)[O-])n1CCSC(=S)N1CCN(C)CC1: 50
